- target.system: T1, Bovine Beta-casein (SEQ ID NO: 3)
- T1 chain: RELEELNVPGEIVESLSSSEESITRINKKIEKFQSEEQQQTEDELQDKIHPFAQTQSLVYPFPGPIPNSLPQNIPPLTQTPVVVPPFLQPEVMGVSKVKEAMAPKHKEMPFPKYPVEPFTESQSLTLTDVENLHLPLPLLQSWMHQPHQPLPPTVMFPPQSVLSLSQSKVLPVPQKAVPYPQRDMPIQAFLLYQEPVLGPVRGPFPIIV
value.kind: phosphorylation at T39, MS grade, in vitro kinase reaction

PrkD (Bacillus subtilis 168 | BSU_02030) (SEQ ID NO: 7) (protein) MALKLLKKLLFDRPLKNGVILNHQYKIEECLGMGGYGLVYLCTDILAQTPYVLKQLRPTKAKKEKEKVRFQQEIKLLKNIHHPQIPGFIDEFIIDGQAYYVMQFIEGENIEELLFFRKQPFTELMALQLISQLLEIIEYLHDRLIFHSDIRTPNIIINDGRLCLIDFGLAKQLTPEEMEEIKVRKQDDFFDLGETLLFLLYSQYKGKKKKNGTWLEELTLTKEVTLLLKRLLGIEEEYQHTASIREDLNRAIQSVT :: +
YabT (GenBank: SPU13583.1) (SEQ ID NO: 5) (protein) MLNWTPKLQSLSTPFAKLSTAAITPTGPAIREATLQFEKYAQEGACWQMMNDALTSLACSLKPGTTIKGKWNGNTYTLRKQLGKGANGIVYLAETSDGHVALKVSDDSLSITSEVNVLKSFSKAQSVTMGPSFFDTDDAYIPSANTKVSFYAMEYIKGPLLLKYVSDKGAEWIPVLMIQLLSSLSVLHQQGWIFGDLKPDNLIVTGPPARIRCIDVGGTTKEGRAIKEYTEFYDRGYWGYGTRKAEPSYDLFAVAMIMINSVHKKEFKKTNQPKEQLRSLIEGNPLLQKYKKALFSALNGDYQSADEMKKDMLDAGQKAAQRKQPIKASPQPATRQRQQKPRQGKITKTRYTPKQKPAKSGGLFETTLIVISVLALYFAYIIFFLI :: ++
PKNB1_Cgl2751 (Corynebacterium glutamicum) (SEQ ID NO: 9) (protein) MYEVLGVIAHGGMGWIYLANDRNVSGRIVVLKGMMAQSSVQDQGTAEAEREFLADITHPGIVKAYNFIDDPRVPGGFIVMEYVNGPSLKDRCKAQPDGVLRVDLAIGYILELLPAMDYLHQRGVVYNDLKPENVIATEDQVKLIDLGAVTGIGAFGYIYGTKGFQAPEVATHGPSISSDIFTIGRTLAALTMPLPVEDGVLAPGIPSPKNSPLLRRHLSFYRLLQRATADDPQHRFRNVSELRTQLYGVLREILAVRDGKQYPPQHSLFSPQRSTFGTKHLVF :: +++
